Provenance of the data: PubChem BioAssay AID1159580

- test method notes: chemical genetic growth profiling, strain panel (AID 1159580);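 further: tested at 20 µM; growth read once vehicle control cultures reached saturation at 30 °C; 1 = growth at the plate median or of vehicle wells; lower values mean less growth of the strain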
- conditions used: S. cerevisiae deletion strains, growth OD, locus YGR078C, strain PAC10, stronger effect = lower value
In all, about 5,500 compounds went through this assay and about 2,000 (36%) were called active. Another 18% or so got no clear call; they are omitted. The list shows a part of the results.
readout type: normalized growth
Please respond with just the number, no unit label.

> print(dat)
                              molecule  experimental.value
1  CC1=NN(c2cccc(S(N)(=O)=O)c2)C(=O)C1                   1
2    NC1CC1c1ccccc1 (stereo not drawn)                1.02

# input for lookup
Measured normalized growth, COc1cccc(C(=O)NCCN2CCN(c3ccc(Cl)cc3)CC2)c1 : 1.01
